Data credit: the supplement of paper PMC13380429

Test system: Vero E6 infected with SARS-CoV-2
Protocol Notes: morphology score (similarity to uninfected cells); higher = more like uninfected cells
Condition Set: 24 h
Record form. Attribute: morphology score. Fill in for each entry.
Numbers only.

Molecule	morphology score
NCC(CC(=O)O)c1ccccc1 (stereo not drawn) [fenigam] (10 µM)	0.256
CN1CCN(C2CCN(C(=O)Nc3cc(Oc4ccc(NC(=O)C5(C(=O)Nc6ccc(F)cc6)CC5)c(F)c4)ccn3)CC2)CC1 [golvatinib] (0.833333 µM)	0.0621
Cn1ccc2cc(NC(=O)Nc3cccnc3)ccc21 (10 µM)	-0.0432

Could you report morphology score for every entry in the following list?
1. O=C(O)Cn1c2c(c3cc(F)ccc31)CN(C(=O)c1cccc3ccccc13)CC2 [setipiprant] (10 µM)
2. CN1CCC(=C2c3ccccc3C=Cc3ccccc32)CC1 [cyproheptadine] (0.833333 µM)
3. COc1cc2nccc(Oc3ccc(NC(=O)Nc4ccc(F)cc4F)c(F)c3)c2cc1OC (10 µM)
4. COc1ccccc1C(=O)Nc1cccc(NC(=O)c2cccc(C)c2)c1 (10 µM)
5. CC(=O)O[C@]1(C(C)=O)CC[C@H]2[C@@H]3C[C@H](C)C4=CC(=O)C=C[C@]4(C)[C@@]3(F)[C@@H](O)C[C@@]21C [fluorometholone-acetate] (10 µM)

stdout:
[-0.161, 0.0226, 0.12, 0.257, 0.0758]
